Quick reference for inhibition among some compounds
# assayed_system: Acetylcholinesterase (Electrophorus electricus) (UniProt O42275)
# Sequence (O42275 24-633 limits assumed): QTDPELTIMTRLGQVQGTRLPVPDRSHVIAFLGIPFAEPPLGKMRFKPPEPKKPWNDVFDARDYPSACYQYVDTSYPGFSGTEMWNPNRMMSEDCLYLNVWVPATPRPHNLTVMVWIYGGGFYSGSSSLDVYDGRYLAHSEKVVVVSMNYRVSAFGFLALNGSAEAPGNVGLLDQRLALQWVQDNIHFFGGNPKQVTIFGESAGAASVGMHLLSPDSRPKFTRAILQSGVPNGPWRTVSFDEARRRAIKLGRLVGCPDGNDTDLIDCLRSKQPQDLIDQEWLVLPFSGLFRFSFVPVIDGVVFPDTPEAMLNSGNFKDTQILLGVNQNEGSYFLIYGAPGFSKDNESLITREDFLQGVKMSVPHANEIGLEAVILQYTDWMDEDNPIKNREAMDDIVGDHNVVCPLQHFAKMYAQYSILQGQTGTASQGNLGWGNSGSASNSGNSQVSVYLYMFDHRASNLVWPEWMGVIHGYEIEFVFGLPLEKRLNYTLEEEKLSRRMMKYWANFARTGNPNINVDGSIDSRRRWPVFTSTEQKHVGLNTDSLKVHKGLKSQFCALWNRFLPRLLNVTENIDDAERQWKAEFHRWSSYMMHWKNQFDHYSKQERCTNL
# experiment_summary: Inhibition of electric eel AChE at 10 uM using ACTI as substrate preincubated for 29 mins followed by substrate addition measured at 1 min intervals for 10 mins by Ellman's assay
measured_property: inhibition (%)

[
  {
    "chemical_smiles": "CCCCSc1nc2c(c(=O)[nH]c(=O)n2C)n1C[C@@H](O)COc1cccc2ccccc12",
    "assayed_system": "Acetylcholinesterase (Electrophorus electricus) (UniProt O42275)",
    "unit_text": "%",
    "observed_result": 5.34
  },
  {
    "chemical_smiles": "O[C@H](CN1CCN(c2ccccc2)CC1)c1c[nH]c2ccc(F)cc12",
    "assayed_system": "Acetylcholinesterase (Electrophorus electricus) (UniProt O42275)",
    "unit_text": "%",
    "observed_result": 2.69
  },
  {
    "chemical_smiles": "CCn1c2ccccc2c2cc([C@@H]3C(C(=O)OCCOC)=C(C)NC4=C3C(=O)CCC4)ccc21",
    "assayed_system": "Acetylcholinesterase (Electrophorus electricus) (UniProt O42275)",
    "unit_text": "%",
    "observed_result": 1.35
  },
  {
    "chemical_smiles": "O=C(Cn1cc(C(=O)C2CC2)c2ccccc21)NCCc1c[nH]c2ccccc12",
    "assayed_system": "Acetylcholinesterase (Electrophorus electricus) (UniProt O42275)",
    "unit_text": "%",
    "observed_result": 3.44
  }
]
